Task for the reader: assign each of the following compounds its reported fraction fluorescent probe displaced, Replicate.
molecular target: MDM2 (Homo sapiens, UniProt Q00987); assay: MDM2 binding screen: displacement of fluorescent p53 peptide probe FP53 (fluorescence polarization); details: Acid 25; replicate; crude macrocycle reactions
Sequence (Q00987 whole entry): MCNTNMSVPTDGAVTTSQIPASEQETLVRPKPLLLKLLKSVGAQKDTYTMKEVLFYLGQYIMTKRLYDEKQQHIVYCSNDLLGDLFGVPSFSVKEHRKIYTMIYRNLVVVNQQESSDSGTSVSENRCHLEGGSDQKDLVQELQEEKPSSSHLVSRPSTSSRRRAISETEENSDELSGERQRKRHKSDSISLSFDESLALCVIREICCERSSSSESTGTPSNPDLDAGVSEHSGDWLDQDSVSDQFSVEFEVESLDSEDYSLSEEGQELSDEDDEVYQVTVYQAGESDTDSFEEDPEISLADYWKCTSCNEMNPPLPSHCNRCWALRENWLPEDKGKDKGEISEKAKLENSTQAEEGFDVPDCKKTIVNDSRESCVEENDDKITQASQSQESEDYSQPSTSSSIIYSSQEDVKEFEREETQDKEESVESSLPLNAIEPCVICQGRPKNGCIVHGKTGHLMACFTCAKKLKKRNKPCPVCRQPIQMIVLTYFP
Numbered stars: 1 amine (or outer) side, 2 acyl side, 3 side chain; on linkers, the order of the positions; unused ones are H or OH. Bridge positions count the residues as written; N and C are the ends. Square brackets hold non-standard residues; d marks the D form. Peptide text beside a SMILES is read from it. * marks the point of attachment. Benzoyl(4-Cl) = O=C(c1ccc(Cl)cc1)*; Cysteamide = C(CS[*:3])N[*:1]; Dap = NC[C@H](N)C(=O)O; Mpa = O=C(O)CCS
Write the number on its own, no unit after it.

// query fraction fluorescent probe displaced, Replicate value for entry O=C1CCSSCCNC(=O)[C@H](Cc2c[nH]c3ccccc23)NC(=O)C2(CCN(C(=O)c3ccc(Cl)cc3)CC2)NC(=O)c2cccc(c2)CN1 [X B5 D6 W Acid 25] 0.15

// query fraction fluorescent probe displaced, Replicate value for entry O=C(NC1CC2C(=O)NCCSSCCC(=O)N3CCCC(C3)C(=O)NC(Cc3c[nH]c4ccccc34)C(=O)N2C1)c1ccc(Cl)cc1 (centres unmarked) [X B4 W D5 Acid 25] 0.20

// query fraction fluorescent probe displaced, Replicate value for entry O=C1CCSSCCNC(=O)[C@@H]2CCCN2C(=O)[C@H](Cc2c[nH]c3ccccc23)NC(=O)[C@H](CNC(=O)c2ccc(Cl)cc2)N1 [X D3 W B1 Acid 25] ([Mpa][Dap](Benzoyl(4-Cl))WP-Cysteamide; disulfide 1-C) 0.22

// query fraction fluorescent probe displaced, Replicate value for entry O=C1NCCSSCCC(=O)N2C[C@@H](NC(=O)c3ccc(Cl)cc3)C[C@H]2C(=O)N[C@@H](Cc2ccccc2)C(=O)NCc2cccc1c2 [X D5 F B5 Acid 25] 0.0465

// query fraction fluorescent probe displaced, Replicate value for entry O=C(NC[C@@H]1NC(=O)[C@H](Cc2ccccc2)NC(=O)[C@@H]2CCCN2C(=O)CCSSCCNC1=O)c1ccc(Cl)cc1 [X B1 F D3 Acid 25] ([Mpa]PF[Dap](Benzoyl(4-Cl))-Cysteamide; disulfide 1-C) 0.20

// query fraction fluorescent probe displaced, Replicate value for entry O=C1CCSSCCNC(=O)c2cccc(c2)CNC(=O)C(CNC(=O)c2ccc(Cl)cc2)NC(=O)C(Cc2c[nH]c3ccccc23)N1 (centres unmarked) [X W D3 B5 Acid 25] 0.17

// query fraction fluorescent probe displaced, Replicate value for entry O=C1NC(Cc2c[nH]c3ccccc23)C(=O)NCCSSCCC(=O)N2CCN(C(=O)c3ccc(Cl)cc3)CC2C(=O)N2CCCC1C2 (mixture of isomers) [X D7 B4 W Acid 25] 0.25

// query fraction fluorescent probe displaced, Replicate value for entry O=C1CCSSCCNC(=O)[C@@H]2C[C@H](NC(=O)c3ccc(Cl)cc3)CN2C(=O)c2cccc(c2)CNC(=O)[C@H](Cc2ccccc2)N1 [X F B5 D5 Acid 25] -0.00432

// query fraction fluorescent probe displaced, Replicate value for entry O=C1CCSSCCNC(=O)[C@H](CNC(=O)c2ccc(Cl)cc2)NC(=O)[C@@H]2CCCN2C(=O)[C@H](Cc2c[nH]c3ccccc23)N1 [X W B1 D3 Acid 25] ([Mpa]WP[Dap](Benzoyl(4-Cl))-Cysteamide; disulfide 1-C) 0.17

// query fraction fluorescent probe displaced, Replicate value for entry O=C1NCCSSCCC(=O)N2CCN(C(=O)c3ccc(Cl)cc3)CC2C(=O)N2CCCC2C(=O)NC1Cc1ccccc1 (centres unmarked) [X D7 B1 F Acid 25] 0.12

// query fraction fluorescent probe displaced, Replicate value for entry O=C1CCSSCCNC(=O)c2cccc(c2)CNC(=O)[C@H](Cc2c[nH]c3ccccc23)NC(=O)[C@H](CNC(=O)c2ccc(Cl)cc2)N1 [X D3 W B5 Acid 25] 0.28
